Origin of values: ChEMBL document CHEMBL1177821

assay.method.text: AUC (0 to 24 hrs) in rat at 500 mg/kg, po
Assay type: ADME, organism-based
Parameters: time < 24 hr, dose 500 mg/kg, route oral
experimental.context: plasma
observation.type: AUC(0-t) at 24 h (µg·h/mL)
Write the number in µg·h/mL without appending the unit.

Please report the measured AUC(0-t) at 24 h for `O=C(Nc1nc(-c2cccc(C(F)(F)F)c2F)cs1)c1cnc(N2CCC(C(=O)O)CC2)c(Cl)c1` 1490

----------
system.name: Thrombopoietin receptor (Homo sapiens)
Sequence (P40238 whole entry): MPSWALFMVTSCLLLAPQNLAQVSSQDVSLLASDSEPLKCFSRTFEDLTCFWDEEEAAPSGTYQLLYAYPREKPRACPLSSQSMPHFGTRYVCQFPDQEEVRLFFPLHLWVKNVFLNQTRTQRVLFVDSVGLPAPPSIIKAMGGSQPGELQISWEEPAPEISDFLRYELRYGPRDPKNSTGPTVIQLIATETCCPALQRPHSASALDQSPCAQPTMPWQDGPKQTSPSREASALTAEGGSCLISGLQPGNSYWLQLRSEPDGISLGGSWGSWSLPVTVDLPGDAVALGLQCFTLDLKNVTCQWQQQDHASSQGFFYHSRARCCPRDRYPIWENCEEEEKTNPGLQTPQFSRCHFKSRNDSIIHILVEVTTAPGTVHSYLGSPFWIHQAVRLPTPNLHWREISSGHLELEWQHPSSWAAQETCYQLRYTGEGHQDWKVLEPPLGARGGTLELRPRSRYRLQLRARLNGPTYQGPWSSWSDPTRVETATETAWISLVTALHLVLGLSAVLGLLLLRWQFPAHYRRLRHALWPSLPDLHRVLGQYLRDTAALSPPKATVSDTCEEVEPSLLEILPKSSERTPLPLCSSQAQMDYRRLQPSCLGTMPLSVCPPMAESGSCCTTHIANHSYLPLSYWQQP
assay.method.text: Agonist activity at human TPO receptor expressed in murine BaF3 cells
Reported EC50 is given for each of the following compounds.
# number only, unit nM dropped from output

Reference set (2 entries):
* O=C(Nc1nc(-c2ccc(F)c(OC(F)(F)F)c2)c(F)s1)c1cnc(N2CCC(C(=O)O)CC2)c(Cl)c1 | 620
* CCCCc1cc(-c2nc(NC(=O)c3cnc(N4CCC(C(=O)O)CC4)c(Cl)c3)sc2F)ccc1F | 220

Note EC50 for the compound shown: `O=C(Nc1nc(-c2ccc(F)c(Br)c2)c(F)s1)c1cnc(N2CCC(C(=O)O)CC2)c(Cl)c1` 670

Could you please provide reported EC50 for `CCCc1sc(NC(=O)c2cnc(N3CCC(C(=O)O)CC3)c(Cl)c2)nc1-c1ccc(F)c(C(F)(F)F)c1` ? Thanks! 130

Give EC50 for `O=C(Nc1nc(-c2ccc(F)c(C(F)(F)F)c2)c(F)s1)c1cnc(N2CCC(C(=O)O)CC2)c(Cl)c1` 89

----------
assay.method.text: Cmax in rat at 50 mg/kg, po
Assay type: ADME, organism-based
Design: dose 50 mg/kg, route oral
experimental.context: in vivo
observation.type: Cmax
Please give the number followed by its unit.

Give reported Cmax value for `O=C(Nc1nc(-c2cccc(C(F)(F)F)c2F)cs1)c1cnc(N2CCC(C(=O)O)CC2)c(Cl)c1` 20000 ng/mL

----------
assay.method.text: Cmax in rat at 500 mg/kg, po
Type: ADME, organism-based
Set-up: dose 500 mg/kg, route oral
experimental.context: in vivo
observation.type: Cmax (µg/mL)
State the answer as a number, implicitly in µg/mL.

Query Cmax for `O=C(Nc1nc(-c2cccc(C(F)(F)F)c2F)cs1)c1cnc(N2CCC(C(=O)O)CC2)c(Cl)c1` 84

----------
assay.method.text: AUC (0 to 24 hrs) in rat at 250 mg/kg, po
Type: ADME, organism-based
Design: time < 24 hr, dose 250 mg/kg, route oral
experimental.context: plasma
observation.type: AUC(0-t) at 24 h (µg·h/mL)
State just the number; it will be interpreted in µg·h/mL.

Assign AUC(0-t) at 24 h to the following record: `O=C(Nc1nc(-c2cccc(C(F)(F)F)c2F)cs1)c1cnc(N2CCC(C(=O)O)CC2)c(Cl)c1` 832

----------
assay.method.text: AUC (0 to 24 hrs) in rat at 50 mg/kg, po
Format: ADME, organism-based
Parameters: time < 24 hr, dose 50 mg/kg, route oral
experimental.context: plasma
observation.type: AUC(0-t) at 24 h (ng·h/mL)
Respond numerically; units are ng·h/mL and should not be typed.

Give the measured AUC(0-t) at 24 h for `O=C(Nc1nc(-c2cccc(C(F)(F)F)c2F)cs1)c1cnc(N2CCC(C(=O)O)CC2)c(Cl)c1` 84000
